Experimental System: Vanilloid receptor (Rattus norvegicus, UniProt Q9ERZ8+Q9WUD2+O35433)
Experiment Description: Ability to inhibit [Ca2+] influx neonatal rat cultured spinal sensory neurons.
Assay type: functional
IC50 vs 20 µM: less than gives Yes; not less than gives No.

Examples with answers:
COc1cc(CCC(O/C(S)=N/CCc2ccccc2)c2ccccc2)ccc1O (stereo not given); No
CCC(CCc1ccc(O)c(OC)c1)/N=C(\S)NCCc1ccccc1 (stereo not given); No
CCC(CCc1ccc(O)c(OC)c1)N(Cc1ccccc1)/C(S)=N/CCc1ccccc1 (stereo not given); No
COc1cc(CCC(CCc2ccc(C(F)(F)F)cc2)O/C(S)=N/CCc2ccccc2)ccc1O (stereo not given); Yes
CCC(CCc1ccc(O)c(OC)c1)CC(=O)NCCc1ccccc1 (stereo not given); No
COc1cc(CCC(Cc2ccccc2)O/C(S)=N/CCc2ccccc2)ccc1O (stereo not given); No
CCC(CCc1ccc(O)c(OC)c1)O/C(S)=N/CCc1ccccc1 (stereo not given); Yes
CCC(CCc1ccc(O)c(OC)c1)OC(=O)NCCc1ccccc1 (stereo not given); No
CCC(CCc1ccc(O)c(OC)c1)NC(=O)NCCc1ccccc1 (stereo not given); No
COc1cc(CCC(CCCc2ccccc2)O/C(S)=N/CCc2ccccc2)ccc1O (stereo not given); No

Q) Check if IC50 falls below 20 µM for COc1cc(CCCO/C(S)=N/CCc2ccccc2)ccc1O .
A) No

Q) Check if IC50 falls below 20 µM for CCC(CCc1ccc(O)c(OC)c1)C/C(S)=N/CCc1ccccc1 (stereo not given) .
A) No

Q) Check if IC50 falls below 20 µM for CCCC(CCc1ccc(O)c(OC)c1)O/C(S)=N/CCc1ccccc1 (stereo not given) .
A) No
